So I've got a bunch of binders here, and I need their % Change Compared to pH 7.4 + Calcium values.
# ASSAYED TARGET: T1, recombinant, soluble human ASGR-1 (human, UniProt P07306 62-291)
# T1 construct: biotinylated in the binning assay; also called soluble huASGR-1; Soluble ASGR-1 (Amgen)
# T1 sequence: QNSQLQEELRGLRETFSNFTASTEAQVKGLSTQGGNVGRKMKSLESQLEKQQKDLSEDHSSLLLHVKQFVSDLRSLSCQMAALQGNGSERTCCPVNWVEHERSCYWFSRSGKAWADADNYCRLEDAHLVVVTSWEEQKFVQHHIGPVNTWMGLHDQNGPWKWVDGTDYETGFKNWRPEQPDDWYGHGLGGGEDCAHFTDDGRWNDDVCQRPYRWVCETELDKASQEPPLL
# ASSAY NAME: Octet BLI dissociation, pH 5.6 plus calcium
Numbers only, in %.

193C7 (antibody, V domains shown, hybridoma mAb) VH: QVQLVESGGGVVQPGRSLRLSCAASGFTFSSYGMHWVRQAPGKGLEWVAVIWYDGSNKNYADSVKGRFTISRDNSKNTLYLQMNSLRAEDTAMYYCARDQGVGYDGLDVWGQGTSVTVSS VL: DIQMTQSPSSLSASVGDRVTITCRASQGIGKYLAWFQQKPGKAPKSLIYAASSLQSGVPSKFSGSGSGTDFTLTISSLQPEDFATYYCQQYSTYPLTFGGGTKVEIK = -8
196F4 (antibody, V domains shown, hybridoma mAb) VH: EVQLLESGGGLVQPGGSLRFSCAASGFTFSSCAMTWVRQAPGKGLEWVSAISGSGGSTYYADSVKGRFTISRDNSKNTLYLQMNSLRAEDTAVYYCAKVGGLTGSYYYYGMDVWGQGTTVTVSS VL: DFQMIQSPSSLSASVGDRVTITCRASQRIHSYLNWYQQKPGKAPKLLIYTASSLQGGVPSRFSGSGSGTDFTLTISSLQPEDFATYYCQQSYGSPLTFGGGTKVEIK = -5

Turning now to a further record.
Q: Read off the recorded % Change Compared to pH 7.4 + Calcium for 50G9 (antibody, V domains shown, hybridoma mAb) VH: QVQLVESGGGVVQPGRSLRLSCAASGFIFSSYGMHWVRQAPGKGLEWVAVISQDGIIRYYADSVKGRFTISRDNSKNTLYLQMNSLRAEDTAVYYCARDVKQWLVRTYGMDVWGQGTTVTVSS VL: SYELTQPPSVSVSPGQTASITCSGDKLGDKYACWYQQKPGQSPVLVIYQDSKRPSGIPERFSGSNSGNTATLTISGTQARDEAEYYCQARNSRRGVFGGGTRLTVL
Ans: 62
